Where these numbers come from: patent US20240150797A1

experiment: Specific activity of purified CHI, absorbance decrease at 384 nm, homoeriodictyol chalcone; type: biochemical; conditions: purified CHI in 50 mM PBS, 100 μM substrate, 25° C. Note: unit not given here.
value_kind: Specific activity, Homoeriodctiol chalcone
Lab note: jot the number down without any unit.

Indicate the recorded Specific activity, Homoeriodctiol chalcone value for this molecule: CHI7: Chalcone isomerase from Clostridium sp. SY8519, access no. WP_013978403.1 (protein, Clostridium sp. SY8519) ADFKFEPMRSFIYVNCAKEDYRPKLQRWLYKTHVPDSIGQFEPYVTKYAFYPSFPTPPEGERFGYCSMQLTEHHWMVSDFDERLGIKAIAETFPPEVLLWQGNITEGMLEAMKKNGGAPGDDGGDSGNEARSTNMEGANPFIFCFAPYWWEDDIKGKGRTIEDGANYRWNVAIGYPEGVSAEEGDRWLFEEVIPVFEAAPECTRILHSKVKKEINGGSGMEHILEFWFENQSGWYQTAVEATKTLKKPAWAQQDQFPFLKPYHKFISVAVADFTMANNLVNYHGYIPRR 50.2

Provide only the value of recorded Specific activity, Homoeriodctiol chalcone for CHI11: Chalcone isomerase from Eubacterium sp., access no. SCK02381.1 (protein, Eubacterium sp) TKNMLGFEPMRSLIYVDVAKEDYRVKLENWLYKYHIPDSISQFGPYVSKYAFYQALPVPEGGERFGAIKMQLTEHYWLANPNNIAQFDHHKALTEYFPPDVLKWQGNLPDEDFQCENVEGDEARAVKGDASKGTVPFIFAFVPVWWEEDYKGAGRTIEDGPNYRWQMVIKFPDDAKDTGDKWLRDEFIPAFVECEETTRILSSKVIKEANGCEFDRVVEMWFEGPSAWKAAVGKAAKKVRRPAWFETEDFPYLTQSYGISSIFLSDIARSDNMTQYNGYVTMR 11.4

State its Specific activity, Homoeriodctiol chalcone for this molecule: CHIera: Chalcone isomerase from Eubacterium ramulus (protein, listed as Eubacterium ramulus) ADFKFEPMRSLIYVDCVSEDYRPKLQRWIYKVHIPDSISQFEPYVTKYAFYPSFPIPPQGDRFGYARMQLTEHHWLVSDLDPRLEIKAIAETFPMDVLVWQGQIPAAAHTDAQIDSDGDAGNAARKSNNAEGNPFIFAFLPMWWEKDLKGKGRTIEDGANYRFNMTIGFPEGVDKAEGEKWLFEKVVPILQAAPECTRVLASAVKKDINGCVMDWVLEIWFENQSGWYKVMVDDMKALEKPSWAQQDAFPFLKPYHNVCSAAVADYTPSNNLANYRGYITMR 44.5

State its Specific activity, Homoeriodctiol chalcone: CHIera Mut4: Chalcone isomerase variant 4 from Eubacterium ramulus, genetically engineered (protein, listed as Eubacterium ramulus) MADFKFEPMRSLIYVDCVSEDYRPKLQRWIYKVHIPDSISQFEPYVTKYAFYPSFPIPPQGDRFGYARMQLTEHHWLVSELDPRLEIKAIAETFPMDVLVWQGQIPAAAHTDAQIDSDGDAGRAAKKSNNAEGNPFIFAFLPMWWEKDLKGKGRTIEDGANYRFNMTIGFPEGVDKAEGEKWLFEKVVPILQAAPECTRVLASAVKKDINGCVMDWVLEIWFENQSGWYKVMVDDMKALEKPSWAQQDAFPFLKPYHNVCSAAVADYTPSNNLANYRGYITMR 4.8
